B1: CD207 (parent)
chain: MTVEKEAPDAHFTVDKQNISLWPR

variants of: B1; assay: protein stability index of a GFP-peptide fusion (GPS, HEK-293T) (PSI 1-6); higher = more stable; settings: c terminus: a fixed tail appended;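 note: lentivirally expressed fusions sorted by FACS into six bins by GFP to DsRed ratio, PSI derived from sequencing read proportions per bin multiplied by bin number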
protein stability index of 3 or higher: fulfilled. Under 3: not fulfilled.

Mutation | Classification
K16I | not fulfilled
T2D | fulfilled
D9R | fulfilled
E6W | not fulfilled
V14G | not fulfilled
L21M | fulfilled
E6N | fulfilled
I19R | fulfilled
D15E | fulfilled
L21P | fulfilled
H11W | not fulfilled
T13L | fulfilled
A10H | fulfilled
D9A | not fulfilled
E4W | not fulfilled
W22A | fulfilled
D15A | fulfilled
T13S | fulfilled
A10E | fulfilled
E4G | fulfilled
E4A | fulfilled
E4F | not fulfilled
Q17T | fulfilled
D15M | not fulfilled
L21C | fulfilled
S20Y | not fulfilled
K16L | not fulfilled
I19S | fulfilled
V3A | fulfilled
